These entries and their values trace back to patent US6964966B2.

ASSAY DETAILS: Phototoxicity, oral dose and UVA exposure, mice
ASSAY CONTEXT: UVA 4 hours for 4 consecutive days, dose causing ear erythema and oedema

[
  {
    "COMPOUND": "COc1c(N2CCC(N)C(C)(C)C2)c(F)cc2c(=O)c(C(=O)O)cn(C3CC3)c12 (single isomer, unassigned; (-)) [Compound 20]",
    "phototoxic dose": "greater than 500 mg/kg"
  },
  {
    "COMPOUND": "COc1c(N2CCC(N)C(C)(C)C2)c(F)cc2c(=O)c(C(=O)O)cn(C3CC3)c12 (single isomer, unassigned; (+)) [Compound 19]",
    "phototoxic dose": "greater than 500 mg/kg"
  },
  {
    "COMPOUND": "C[C@@H]1CN(c2c(F)c(N)c3c(=O)c(C(=O)O)cn(C4CC4)c3c2F)C[C@H](C)N1 [sparfloxacin, reference compound]",
    "phototoxic dose": "25 mg/kg"
  },
  {
    "COMPOUND": "COc1c(N2CCC(N)C(C)(C)C2)c(F)cc2c(=O)c(C(=O)O)cn(C3CC3)c12 (racemic) [Compound 18]",
    "phototoxic dose": "greater than 500 mg/kg"
  }
]

----------
System: V79 (Chinese Hamster Lung)
ASSAY DETAILS: Cytotoxicity test (Alamar blue), V79 cells (Table 23)
Assay type: cell-based
ASSAY CONTEXT: minimum drug concentration inhibiting Alamar blue color change, 3 hrs drug exposure, then 96 hrs incubation
The entries below are paired with their reported Cytotoxic concentration, V 79 CHL.
READOUT LABEL: Cytotoxic concentration, V 79 CHL (µg/mL)

[
  {
    "COMPOUND": "Cc1c(N2CC[C@H](N)[C@H](C)C2)c(F)cc2c(=O)c(C(=O)O)cn(C3CC3)c12 (relative stereo)",
    "VALUE COMPARATOR": "=",
    "VAL": 125
  },
  {
    "COMPOUND": "Cc1c(N2CC[C@H](O)[C@H](C)C2)c(F)cc2c(=O)c(C(=O)O)cn(C3CC3)c12 (relative stereo)",
    "VALUE COMPARATOR": ">",
    "VAL": 1000
  },
  {
    "COMPOUND": "Cc1c(N2CCC(N)C(C)(C)C2)c(F)cc2c(=O)c(C(=O)O)cn(C3CC3)c12 (racemic) [Compound 92]",
    "VALUE COMPARATOR": ">",
    "VAL": 1000
  },
  {
    "COMPOUND": "Cc1c(N2CCC(N)C(C)(C)C2)c(F)cc2c(=O)c(C(=O)O)cn(C3CC3)c12 (single isomer, unassigned; (-)) [Compound 93]",
    "VALUE COMPARATOR": "=",
    "VAL": 250
  },
  {
    "COMPOUND": "Cc1c(N2CC[C@@H](O)[C@H](C)C2)c(F)cc2c(=O)c(C(=O)O)cn(C3CC3)c12 (relative stereo)",
    "VALUE COMPARATOR": ">",
    "VAL": 1000
  },
  {
    "COMPOUND": "Cc1c(N2CCC(N)C(C)(C)C2)c(F)cc2c(=O)c(C(=O)O)cn(C3CC3)c12 (racemic) [Compound 91]",
    "VALUE COMPARATOR": "=",
    "VAL": 750
  },
  {
    "COMPOUND": "Cc1c(N2CC[C@@H](N)[C@H](C)C2)c(F)cc2c(=O)c(C(=O)O)cn(C3CC3)c12 (relative stereo)",
    "VALUE COMPARATOR": "=",
    "VAL": 250
  }
]
